tested on: Quadruplex RNA; test: Thermal stabilization of NRAS RNA G4 (unknown origin) assessed as change in melting temperature at 10 uM by CD spectrophotometer analysis; format: nucleic-acid assay

Chemical String: CCCCN(CCCC)CCOc1ccc2nc3c(oc4ccc(F)cc43)c(NCCN)c2c1
ΔTm: 13.4 °C
--
Chemical String: CSc1ccc(/C=C/c2ccc3nc4c(oc5ccccc54)c(NCCN4CCN(C)CC4)c3c2)cc1
ΔTm: 16.8 °C
--
Chemical String: CCCCN(CCCC)CCOc1ccc2nc3c(oc4ccc(F)cc43)c(NCCN(C)C)c2c1
ΔTm: 26.3 °C
--
Chemical String: CCCCN(CCCC)CCCOc1ccc2nc3c(oc4ccccc43)c(NCCCN)c2c1
ΔTm: 19.5 °C
--
Chemical String: CCN(CC)CCCOc1ccc2nc3c(oc4ccc(F)cc43)c(NCCN)c2c1
ΔTm: 21.2 °C

---

tested on: Quadruplex RNA; assay: Thermal stabilization of NRAS RNA G4 (unknown origin) assessed as change in melting temperature at 10 uM by CD spectrophotometer analysis; format: nucleic-acid assay
Assign Y whenever ΔTm does not fall below 20 °C; assign N whenever it does.

Chemical String: NCCNc1c2cc(OCCN3CCCCCC3)ccc2nc2c1oc1ccc(F)cc12
Group: N
--
Chemical String: CCCCN(CCCC)CCCNc1ccc2nc3c(oc4ccc(F)cc43)c(NCCN(C)C)c2c1
Group: N
--
Chemical String: CCCCN(CCCC)CCCOc1ccc2nc3c(oc4ccc(F)cc43)c(NCCN3CCCCC3)c2c1
Group: Y
--
Chemical String: CCCCN(CCCC)CCOc1ccc2nc3c(oc4ccc(F)cc43)c(NCCN3CCCCC3)c2c1
Group: Y
--
Chemical String: CCCCN(CCCC)CCCOc1ccc2nc3c(oc4ccc(F)cc43)c(NCCN)c2c1
Group: Y
--
Chemical String: CCCCN(CCCC)CCCOc1ccc2nc3c(oc4ccc(F)cc43)c(NCCN(C)C)c2c1
Group: Y
--
Chemical String: CCCCN(CCCC)CCCNc1ccc2nc3c(oc4ccc(F)cc43)c(NCCCN)c2c1
Group: N
--
Chemical String: CCN(CC)CCCOc1ccc2nc3c(oc4ccc(F)cc43)c(NCCN(C)C)c2c1
Group: Y

---

system: MCF7; assay: Cytotoxicity against human MCF7 cells incubated for 48 hrs by MTT assay; assay type: functional, cell-based; settings: MCF7, 48 h
Metric: IC50 (µM)

Chemical String: CCCCN(CCCC)CCCOc1ccc2nc3c(oc4ccc(F)cc43)c(NCCCN)c2c1
Assay System: MCF7
Metric: IC50
Value Measured: 4.1

---

system: HepG2; assay: Cytotoxicity against human HepG2 cells incubated for 48 hrs by MTT assay; assay type: functional, cell-based; settings: HepG2, 48 h
pIC50: −log10 of the molar value.

Chemical String: CCCCN(CCCC)CCCOc1ccc2nc3c(oc4ccc(F)cc43)c(NCCCN)c2c1
pIC50: 5.82

---

tested on: Quadruplex RNA; experiment: Thermal stabilization of NRAS RNA G4 (unknown origin) assessed as change in melting temperature at 10 uM by CD spectrophotometer analysis; assay type: nucleic-acid assay

Chemical String: CN(C)CCCCCCOc1ccc2nc3c(oc4ccc(F)cc43)c(NCCN(C)C)c2c1
ΔTm / °C: 24.1

Chemical String: CN(C)CCCCCCOc1ccc2nc3c(oc4ccc(F)cc43)c(NCCCN)c2c1
ΔTm / °C: 25.3

Chemical String: CCN(CC)CCCOc1ccc2nc3c(oc4ccc(F)cc43)c(NCCCN)c2c1
ΔTm / °C: 25.3

Chemical String: CCCCN(CCCC)CCCOc1ccc2nc3c(oc4ccccc43)c(NCCN(C)C)c2c1
ΔTm / °C: 22

Chemical String: CN(C)CCNc1c2cc(OCCN3CCCCCC3)ccc2nc2c1oc1ccc(F)cc12
ΔTm / °C: 18.1

Chemical String: CCCCN(CCCC)CCOc1ccc2nc3c(oc4ccc(F)cc43)c(NCCCN)c2c1
ΔTm / °C: 22.1

Chemical String: CCCCN(CCCC)CCCOc1ccc2nc3c(oc4ccccc43)c(NCCN3CCCC3)c2c1
ΔTm / °C: 20.2

Chemical String: CCCCN(CCCC)CCCOc1ccc2nc3c(oc4ccc(F)cc43)c(NCCCN)c2c1
ΔTm / °C: 26.1

Chemical String: CCCCN(CCCC)CCOc1ccc2nc3c(oc4ccc(F)cc43)c(NCCN3CCN(C)CC3)c2c1
ΔTm / °C: 30.6

Chemical String: NCCCNc1c2cc(OCCN3CCCCCC3)ccc2nc2c1oc1ccc(F)cc12
ΔTm / °C: 24.2

---

biological target: Quadruplex RNA; experiment: Binding affinity to NRAS RNA G4 (unknown origin) by SPR method
pKd: −log10 of the molar value.

Chemical String: CCCCN(CCCC)CCCOc1ccc2nc3c(oc4ccc(F)cc43)c(NCCCN)c2c1
pKd: 5.64

---

system: Quadruplex RNA; test: Thermal stabilization of NRAS RNA G4 (unknown origin) assessed as change in melting temperature at 10 uM by CD spectrophotometer analysis; assay type: nucleic-acid assay

Chemical String: CN(C)CCCCCCOc1ccc2nc3c(oc4ccc(F)cc43)c(NCCN)c2c1
Assay System: Quadruplex RNA
ΔTm / °C: 20.7
//
Chemical String: CCCCN(CCCC)CCCNc1ccc2nc3c(oc4ccc(F)cc43)c(NCCN3CCN(C)CC3)c2c1
Assay System: Quadruplex RNA
ΔTm / °C: 25.5
//
Chemical String: CN(C)CCCCCCOc1ccc2nc3c(oc4ccc(F)cc43)c(NCCN3CCCC3)c2c1
Assay System: Quadruplex RNA
ΔTm / °C: 24.8
//
Chemical String: CCCCN(CCCC)CCCOc1ccc2nc3c(oc4ccc(F)cc43)c(NCCN3CCCC3)c2c1
Assay System: Quadruplex RNA
ΔTm / °C: 20.8
//
Chemical String: Fc1ccc2oc3c(NCCN4CCCC4)c4cc(OCCN5CCCCCC5)ccc4nc3c2c1
Assay System: Quadruplex RNA
ΔTm / °C: 21.4
//
Chemical String: CCCCN(CCCC)CCCOc1ccc2nc3c(oc4ccc(F)cc43)c(NCCN3CCN(C)CC3)c2c1
Assay System: Quadruplex RNA
ΔTm / °C: 31.8
//
Chemical String: CCCCN(CCCC)CCOc1ccc2nc3c(oc4ccc(F)cc43)c(NCCN3CCCC3)c2c1
Assay System: Quadruplex RNA
ΔTm / °C: 24
//
Chemical String: CCN(CC)CCCOc1ccc2nc3c(oc4ccc(F)cc43)c(NCCN3CCCC3)c2c1
Assay System: Quadruplex RNA
ΔTm / °C: 26.3
//
Chemical String: CCCCN(CCCC)CCCNc1ccc2nc3c(oc4ccc(F)cc43)c(NCCN3CCCCC3)c2c1
Assay System: Quadruplex RNA
ΔTm / °C: 21.3

The measured values listed here are drawn from ChEMBL document CHEMBL5512663.
